Hey, just so you know, these numbers are from patent US20220324835A1.

target or test system: Cbl-b (Homo sapiens)
Sequence (Q13191 36-427): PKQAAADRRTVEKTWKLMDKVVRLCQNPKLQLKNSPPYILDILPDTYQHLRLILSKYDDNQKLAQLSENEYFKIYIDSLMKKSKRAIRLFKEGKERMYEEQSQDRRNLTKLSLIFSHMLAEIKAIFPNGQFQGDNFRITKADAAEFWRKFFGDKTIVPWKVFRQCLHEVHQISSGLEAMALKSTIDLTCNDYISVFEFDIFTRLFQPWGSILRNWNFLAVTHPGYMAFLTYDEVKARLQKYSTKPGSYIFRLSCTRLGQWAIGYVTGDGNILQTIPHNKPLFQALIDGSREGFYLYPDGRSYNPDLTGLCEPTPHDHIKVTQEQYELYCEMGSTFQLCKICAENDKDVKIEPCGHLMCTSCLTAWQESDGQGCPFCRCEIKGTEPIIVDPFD
experiment description: Cbl-b inhibition assay (Cbl-b activity assay, FRET, Biological Example 1; 100 mM NaCl, 60 nM Src kinase)
Assay type: biochemical
particulars: upper bound stated in text lists; read-out: IC50 values in the Cbl-b inhibition assay of Biological Example 1
The following compounds are shown together with reported IC50 values.

Just so you know, measured IC50 for Cc1cc2c(c(C3CC3)n1)CN(c1cccc(C3(Cc4nncn4C)COC3)c1)C2=O came out at ≤ 100 nM

Just so you know, measured IC50 for Cc1conc1C[C@@H](C)c1cccc(NC(=O)c2ccnc(C(F)(F)F)n2)c1 [Compound 213a] came out at ≤ 500 nM

More entries:
Just so you know, measured IC50 for C[C@H](Cc1nncn1C)c1cccc(N2Cc3c(Br)cccc3C2=O)c1 came out at ≤ 500 nM

Just so you know, measured IC50 for Cc1cc(C(=O)Nc2cccc([C@H](C)Cc3nocc3C)c2)nc(C2CC2)n1 came out at ≤ 100 nM

Just so you know, measured IC50 for C[C@H](Sc1nncn1C)c1cccc(NC(=O)c2cc(C(=O)N3C[C@H](O)C[C@@H]3C)ccn2)c1 came out at ≤ 1000 nM
